molecular target: PcrV of P. aeruginosa strain ATCC 700888 (Pseudomonas aeruginosa strain ATCC …); experiment: cell-based or functional assay
Assignment: determine reported A549 Cytotoxicity Assay (IC50) for the given binders.

The measured A549 Cytotoxicity Assay (IC50) associated with H1H29329P (antibody, V domains shown) VH: EVQLVESGGGLVQPGGSLRLSCAASGFTFSDHEMNWVRQAPGKGLEWISYIGSGVVTMYYADSVRGRFTISRDNAKKTLYLQMNSLRAEDTAVYYCARDRGYYFGSEAFHYWGQGTLVTVSS VL: DIQMTQSPSTLSASVGDRVTITCRASQSISNWLAWYQQKPGKAPKLLIYKSSSLESGVPSRFSGSGSGTEFTLTISSLQPDDFATYYCQQYKSYSLTFGGGTKVEIKR reads 0.0543 µM

The measured A549 Cytotoxicity Assay (IC50) associated with H1H29339P (antibody, V domains shown) VH: EVQLVESGGDLVQPGGSLRLSCAASGFTFNTYAMNWVRQAPGKGLEWVAVIGGSGYSTNYADSVKGRFTISRDNSKNTLYLQMNSLRTEDTAVYYCAKEGNIVALYWYFDLWGRGTLVTVSS VL: DIQMTQSPSSLSASVGDRVTITCRASQSISRYLNWYQQKPGKAPKLLIYAASSLQGGVPSKFSGSGSGTDFTLTISSLQPEDFATYYCQQSSTTPLTFGGGTKVEIKR reads 0.00782 µM

The measured A549 Cytotoxicity Assay (IC50) associated with REGN3514 (antibody, V domains shown, also called Control I; Control I-REGN3514) VH: EMQLLESGGGLVQPGGSLRLSCAASGFTFSSYAMNWVRQAPGEGLEWVSAITISGITAYYTDSVKGRFTISRDNSKNTLYLQMNSLRAGDTAVYYCAKEEFLPGTHYYYGMDVWGQGTTVTVSS VL: AIQMTQSPSSLSASVGDRVTITCRASQGIRNDLGWYQQKPGKAPKLVIYSASTLQSGVPSRFSGSGSGTDFTLSISSLQPDDFATYYCLQDYNYPWTFGQGTKVEIKR reads 0.0178 µM
